assay: solvent given as SMILES; conditions: in CS(C)=O
Lab note: compare emission maximum with 500 nm, writing Criterion met if less and Criterion not met if equal or more.

>  <lineNotation>
C[N+]1=C(/C=C/C=C2/N(CCC[N+](C)(C)C)c3ccc(Br)cc3C2(C)C)C(C)(C)c2ccccc21

>  <assignedClass>
Criterion not met

$$$$
>  <lineNotation>
CC(C)[Si]1(C(C)C)c2cc(C=O)ccc2-c2ccc(N(C)C)cc21

>  <assignedClass>
Criterion not met

$$$$
>  <lineNotation>
CC1(C)C(/C=C/c2cc3ccc(O)cc3oc2=O)=[N+](CCCS(=O)(=O)[O-])c2ccccc21

>  <assignedClass>
Criterion not met

$$$$
>  <lineNotation>
Cc1cccc2cc(-c3cc4cccc(C)c4oc3=O)oc12

>  <assignedClass>
Criterion met

$$$$
>  <lineNotation>
Cc1cc2c3ccccc3oc2c2c1c1ccccc1n2-c1ccc(C#N)cc1

>  <assignedClass>
Criterion met

$$$$
>  <lineNotation>
CCCCCCCCN1c2ccc(C#Cc3ccc(F)cc3)cc2Sc2cc(C=O)ccc21

>  <assignedClass>
Criterion not met

$$$$
>  <lineNotation>
CCOC(=O)c1ccccc1-c1c2ccc(=O)cc-2oc2cc(OC(=O)[C@H](CO[Si](C)(C)C(C)(C)C)NC(=O)OC(C)(C)C)ccc12

>  <assignedClass>
Criterion not met

$$$$
>  <lineNotation>
O=C1c2ccccc2C2=Cc3ccccc3B(O)N12

>  <assignedClass>
Criterion met

$$$$
>  <lineNotation>
CCC/N=C/c1cc2ccc(N(C)C)cc2cc1OC

>  <assignedClass>
Criterion met

$$$$
>  <lineNotation>
Nc1ccc2c(c1)oc(=O)c1c(=O)oc3ccccc3c12

>  <assignedClass>
Criterion not met

$$$$
>  <lineNotation>
COc1ccc2c(c1)CCc1c-2nc(N)c(C#N)c1-c1ccc(Br)cc1

>  <assignedClass>
Criterion met

$$$$
>  <lineNotation>
c1ccc(-c2nc3c(c4c2-c2ccccc2CC4)-c2ccccc2CC3)cc1

>  <assignedClass>
Criterion met

$$$$
>  <lineNotation>
C=CCNS(=O)(=O)c1ccc2c(c1)C(=O)/C(=C1\Sc3ccc(S(=O)(=O)NCC=C)cc3C1=O)S2

>  <assignedClass>
Criterion not met

$$$$
>  <lineNotation>
CCCCCCCCN1c2ccc(C#Cc3ccc(C(F)(F)F)cc3)cc2Sc2cc(C=O)ccc21

>  <assignedClass>
Criterion not met

$$$$
>  <lineNotation>
CCCCNc1ccc(NCCCC)c2c1C(=O)c1ccccc1C2=O

>  <assignedClass>
Criterion not met

$$$$
>  <lineNotation>
CCN(CC)c1ccc2cc(-c3csc(NC(C)=O)c3C#N)c(=O)oc2c1

>  <assignedClass>
Criterion met

$$$$
>  <lineNotation>
Cn1c2ccccc2c(=O)c2ccccc21

>  <assignedClass>
Criterion met

$$$$
>  <lineNotation>
Nc1ncnc2c1c(-c1ccc3ccccc3c1)nn2[C@H]1C[C@H](O)[C@@H](CO)O1

>  <assignedClass>
Criterion met

$$$$
>  <lineNotation>
Fc1ccc(-c2nc3n(c2-c2ccncc2)CCS3)cc1

>  <assignedClass>
Criterion met

$$$$

###

assay: solvent given as SMILES; conditions: in C1CCCCC1
measure: emission maximum (nm)

>  <compound>
COc1cc2c3c(c4cc(OC)c(OC)c(OC)c4c2c(OC)c1OC)=[N+]1C(=C(c2c(C)cc(C)cc2C)c2cc4c5cc(OC)c(OC)c(OC)c5c5c(OC)c(OC)c(OC)cc5c4n2[B-]1(F)F)C=3

>  <val>
749

$$$$
>  <compound>
CN(C)c1ccc(C#Cc2nc(-c3ccccc3)nc3ccccc23)cc1

>  <val>
423

$$$$
>  <compound>
Cc1cc(C)c(B2c3cc(C(C)(C)C)ccc3-c3cc4ccccc4c4cc(C(C)(C)C)cc2c34)c(C)c1

>  <val>
420

$$$$
>  <compound>
CCCC[Si](C)(C)c1cccc2ccccc12

>  <val>
329

$$$$
>  <compound>
COc1cc(C2=CC3=C(c4c(C)cc(C)cc4C)c4cc(-c5cc(OC)c(OC)c(OC)c5)c(-c5cc(OC)c(OC)c(OC)c5)n4[B-](F)(F)[N+]3=C2c2cc(OC)c(OC)c(OC)c2)cc(OC)c1OC

>  <val>
670

$$$$
>  <compound>
O=P1(c2ccccc2)c2ccccc2-c2sc3ccccc3c21 (configuration not stated)

>  <val>
417

$$$$
>  <compound>
N#Cc1ccc(N(c2ccc(C#N)cc2)c2ccc3c4cccc5c(N(c6ccc(C#N)cc6)c6ccc(C#N)cc6)ccc(c6cccc2c63)c54)cc1

>  <val>
494

$$$$

Where do the numbers come from? From the Deep4Chem optical property database.
